These entries and their values trace back to the supplement of paper PMC9112550.

Hi there, I'd appreciate the recorded shrunken log2 fold change for every entry that follows.
# Test system: Escherichia coli TOP10;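 also: peptides expressed intracellularly from a pBAD plasmid library in pooled LB shake-flask culture, induced with 0.3% L-arabinose, DNA abundance read by NGS, three biological replicates, DESeq2 with apeglm shrinkage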
# method: shrunken log2 fold change of peptide-encoding DNA abundance (4.5 h post-induction vs induction); higher = less antimicrobial activity (less host growth inhibition)
# condition_description: time post-induction: 4.5 h; library: site-saturation at positions 5, 18, 19, 20
One number for each entry.

{"columns": ["macromolecule_sequence", "system_under_test", "assay_result"],
 "data": [
  ["RRIRWRPPRLPRPRPRPIWQPRP", "Escherichia coli TOP10", -0.0567],
  ["RRIRPRPPRLPRPRPRPFLLPRP", "Escherichia coli TOP10", -0.516],
  ["RRIRCRPPRLPRPRPRPNPLPRP", "Escherichia coli TOP10", -0.131],
  ["RRIRVRPPRLPRPRPRPKQAPRP", "Escherichia coli TOP10", 0.243]
]}

Respectfully, I request shrunken log2 fold change for each entry included below.
1. RRIRSRPPRLPRPRPRPHKHPRP
2. RRIRDRPPRLPRPRPRPKHRPRP
3. RRIRLRPPRLPRPRPRPDWTPRP
4. RRIRVRPPRLPRPRPRPNWPPRP
5. RRIRPRPPRLPRPRPRPDYWPRP
6. RRIRKRPPRLPRPRPRPKFPPRP

1. -0.411
2. 0.114
3. 0.000807
4. 0.282
5. 0.207
6. 0.134

Respectfully, I request shrunken log2 fold change for each entry included below.
1. RRIRFRPPRLPRPRPRPSLIPRP
2. RRIRFRPPRLPRPRPRPSPSPRP
3. RRIRARPPRLPRPRPRPFPSPRP
4. RRIRPRPPRLPRPRPRPTDAPRP

1. -1.06
2. 0.12
3. 0.131
4. 0.12

Given the entry `RRIRIRPPRLPRPRPRPLVCPRP` , report its measured shrunken log2 fold change.
-0.346
